B1: YPEL3 (parent)
chain: SKPKTFQAYLDDCHRRYSCAHCRA

variants of: B1; assay: protein stability index of a GFP-peptide fusion (GPS, HEK-293T) (PSI 1-6); higher = more stable; details: c terminus: a fixed tail appended;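 also: lentivirally expressed fusions sorted by FACS into six bins by GFP to DsRed ratio, PSI derived from sequencing read proportions per bin multiplied by bin number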
# label = TRUE if protein stability index >= 2 else FALSE

Req: Decide: is the reported value of protein stability index for SKPKTFQAYLDDCHRRYSCPHCRA [A20P] equal to or greater than 2?
Resp: FALSE

Req: Reported protein stability index at or above 2? SKKKTFQAYLDDCHRRYSCAHCRA [P3K]
Resp: TRUE

Req: Please check the record SKPKTFQAYLDKCHRRYSCAHCRA [D12K] and state if its protein stability index is at or above 2.
Resp: TRUE

Req: Could you please find out whether SKPKTFQAYLDDCHRRMSCAHCRA [Y17M] has protein stability index that meets 2 or exceeds it?
Resp: FALSE

Req: Exam item: decide whether the reported protein stability index for SKPKTFQAYLDACHRRYSCAHCRA [D12A] is at least 2.
Resp: TRUE

Req: Is reported protein stability index greater than or equal to 2 here: SSPKTFQAYLDDCHRRYSCAHCRA [K2S]
Resp: FALSE

Req: Decide: is the reported value of protein stability index for SLPKTFQAYLDDCHRRYSCAHCRA [K2L] equal to or greater than 2?
Resp: FALSE

Req: Test whether the variant SKPKTFQAYLDDCHRRYSCKHCRA [A20K] records protein stability index of 2 or higher.
Resp: TRUE

Req: For this variant, is measured protein stability index 2 or higher? PKPKTFQAYLDDCHRRYSCAHCRA [S1P]
Resp: TRUE

Req: Is it the case that SKPKTFQAYLDDCHRRYSCAHCCA [R23C] has protein stability index reaching or exceeding 2?
Resp: FALSE

Req: Determine whether measured protein stability index meets or exceeds 2 for SKPKTFQAYLDDCHRRYSCAHKRA [C22K]
Resp: TRUE

Req: # check: protein stability index of SKPKTFQAYLDDCHRRYSPAHCRA [C19P] is greater than or equal to 2
Resp: TRUE

Req: Hello, I need to know if SKPKTFQAYRDDCHRRYSCAHCRA [L10R] has measured protein stability index not below 2. Thanks!
Resp: TRUE

Req: Could you verify whether the entry SKPKTFQAYLDDCHRRYSCWHCRA [A20W] shows protein stability index of no less than 2?
Resp: TRUE
